System: P. falciparum stage V gametocytes
Set-up: BacTiter-Glo ATP luminescence viability of purified stage V gametocytes in 384-well plates, per cent inhibition versus DMSO
measurement_parameters: 48 h, 5 µM; inhibitor
Hit rate of the full screen: of about 13,000 compounds, about 3,200 (25%) showed an effect of 50% or more. The list shows a part of the results.
readout_label: % Inhibition (%)
Provide the reading as a plain figure in %.

Ask: What value of % Inhibition has been reported for the following compound? Cc1cc2cc(CNCCc3ccccc3Br)ccc2nc1N
Reply: 84.79

Ask: For O=C(Nc1cccc(-c2cc(-c3c(Cl)cccc3Cl)no2)c1)c1cnc2ccccc2c1 , what is its reported % Inhibition?
Reply: 13.25

Ask: Would you mind telling me what % Inhibition value was observed for CC(=O)Nc1cccc(C(=O)Nc2ccc(-c3ccc(-c4nc5cccc(C)c5[nH]4)s3)cc2)c1 ?
Reply: -2.133

Ask: If you can, please state the reported % Inhibition value of COc1ccc(NC(=O)[C@H](CC(C)C)Nc2ccnc(NCCc3ccc(F)cc3)n2)cc1 .
Reply: 23.86

Ask: Entry CNC(=O)c1ccccc1Nc1nc(Nc2ccc(N3CCOCC3)cc2)ncc1Cl has what % Inhibition?
Reply: -63.52

Ask: # % Inhibition lookup, item O=C(NCC(CCN1CCC(c2c[nH]c3ccccc23)CC1)c1ccccc1)Nc1ccc(Cl)c(Cl)c1 (centres unmarked)
Reply: 1.901

Ask: // returns reported % Inhibition for input O=C(NCCCCN1CCC(c2ccc3c(c2OCc2ccccn2)CCCC3)CC1)c1ccc(NC(=O)c2ccc(Cl)cc2)cc1
Reply: 101.6

Ask: Find the recorded % Inhibition belonging to FC(F)c1nc2ccccc2n1-c1nc(N2CCOCC2)nc(N2CCOCC2)n1 and report it.
Reply: 98.45

Ask: Suppose we examine the compound Cc1noc(C)c1-c1ccc(C(=C2CCCCCC2)c2ccc(O)cc2)cc1 ; what % Inhibition value has been reported?
Reply: -11.65

Ask: So what's the measured % Inhibition for this one? Cc1cc(C2CCN(CCCCNC(=O)c3ccc(NC(=O)c4ccc(Cl)cc4)cc3)CC2)c(C)cc1OCc1ccccn1
Reply: 24.78

Ask: Requested read-out: % Inhibition. Entry: CC(=O)c1c(C)[nH]c(C(=O)Nc2ccc(-c3nc4ccc(C)cc4s3)cc2)c1C
Reply: 55.35

Ask: Give the measured % Inhibition of COc1cc(NC(=O)N2CCOC(CCN3CCC4(CCc5ccccc54)CC3)(c3ccc(Cl)c(Cl)c3)C2)cc(OC)c1OC (centres unmarked) .
Reply: -4.106

Ask: Which % Inhibition is reported for this compound? CCCN(Cc1nnc(-c2ccco2)o1)C(=O)C1CCN(c2ncc(C(F)(F)F)cc2Cl)CC1
Reply: -10.32

Ask: I'd like to know its % Inhibition. The compound in question is Fc1ccc2nc(-c3ccc(-c4ccc(CNCC5CCCO5)cc4)s3)[nH]c2c1 (centres unmarked)
Reply: -65.64

Ask: GET /values?readout=% Inhibition&item= COc1ccc(NC(=O)CCNc2ccnc(NCCc3ccc(F)cc3)n2)cc1
Reply: 38.74

Ask: Need % Inhibition of CNC(=O)c1cnc(Nc2ccc(N3CCN(C)CC3)cc2)nc1Nc1ccccc1OC , thanks.
Reply: -26.7

Ask: Fill in the blank: the reported % Inhibition of Clc1ccc(Cn2nc(Br)nc2Br)c(Cl)c1 is ____.
Reply: -61.09

Ask: Look up % Inhibition: CC(C)CNC(=O)CN1C(=O)C(c2ccccc2)(c2ccccc2)N=C1N
Reply: -9.905

Ask: Which % Inhibition is reported for this compound? Cc1nc(-c2cccc(NCc3ccccc3)c2)[nH]c1C
Reply: -26.98

Ask: Suppose we examine the compound O=C(NCCCCN1CCC(c2ccc3c(c2OCc2ccncc2)CCCC3)CC1)c1ccc(NC(=O)c2ccc(Cl)cc2)cc1 ; what % Inhibition value has been reported?
Reply: 119.9

Ask: Consider the compound shown here: Nc1ccc2[nH]cc(C3CCN(CC4CCC(NC(=O)/C=C/c5ccccc5Cl)CC4)CC3)c2n1 (centres unmarked) What is its recorded % Inhibition?
Reply: 106.2

Ask: Could you share which % Inhibition value was measured for COc1ccc2c(CCNc3nc(SC)ncc3C(=O)NCCc3ccc(F)cc3)c[nH]c2c1 ?
Reply: 55

Ask: Query: % Inhibition; subject: CCOC(=O)c1cc(Cl)cc(Cl)c1OCCCON1C(N)=NC(N)=NC1(C)C
Reply: 21.46

Ask: // query % Inhibition value for entry Nc1ccc2[nH]cc(C3CCN(CC4CCC(NC(=O)/C=C/c5ccc(Cl)c(Cl)c5)CC4)CC3)c2n1 (centres unmarked)
Reply: 97.26

Ask: What value of measured % Inhibition is listed for COc1cc2nc(N3CCC(CNC(=O)c4ccc(-c5ccc(-c6noc(C)n6)cc5C)cc4)CC3)nc(N)c2cc1OC ?
Reply: 105.9

Ask: Item CCN1CCN(c2cc(C)c3cc(NC(=O)c4ccc([N+](=O)[O-])c(C)c4)ccc3n2)CC1 has what recorded % Inhibition?
Reply: 24.57

Ask: Name the reported % Inhibition value associated with the compound Cn1c(NC(=O)c2ccc(CNC(=O)c3ccc(O)c(-c4ccc(Cl)c(Cl)c4)c3)cc2)nc2ccccc21
Reply: -6.168

Ask: Recorded % Inhibition of CC(=O)Nc1ccc(C2NC(=O)NC(c3ccccc3)=C2c2nc3ccccc3s2)cc1 (centres unmarked) , please.
Reply: -96.89

Ask: I have this compound here, CCOc1ncccc1CN1CCC(N2CCc3cc(NC(=O)c4ccco4)ccc32)C1 (centres unmarked) , and I need its recorded % Inhibition.
Reply: -21.9

Ask: What does the data say about its % Inhibition? Entry: Nc1nc(N)c2c(Cl)c(N3CCOCC3)ccc2n1
Reply: -6.497

Ask: Look up % Inhibition for this compound: CN(CCCN(C)c1cc(NC(=O)c2ccc(F)cc2)ccn1)Cc1cccc(F)c1
Reply: -7.091

Ask: // query % Inhibition value for entry CN1CCN(c2ccc(Nc3ncc(Cl)c(Nc4cccnc4C(N)=O)n3)cc2)CC1
Reply: -84.83

====

Kindly supply the reported % Inhibition values for the records listed here.
Test system: P. falciparum stage V gametocytes
Parameters: BacTiter-Glo ATP luminescence viability of purified stage V gametocytes in 384-well plates, per cent inhibition versus DMSO
measurement_parameters: 48 h, 5 µM; inhibitor
Among all 13,000 compounds or so, about 3,200 (25%) showed an effect of 50% or more. The list shows a part of the results.
Note: unit % is implicit; provide only the numeric part.

Ask: Look up % Inhibition for this molecule: CN1CCC(C(=O)Nc2cccc(-c3ccc(-c4nc5ccccc5[nH]4)cc3)c2)CC1 [TCMDC-132186]
Reply: -0.3438

Ask: # % Inhibition lookup, item CN1CCC(C(=O)Nc2ccc(-c3ccc(-c4nc5cc(C(F)(F)F)ccc5[nH]4)s3)cc2)CC1 [TCMDC-132183]
Reply: -1.127

Ask: Endpoint output: % Inhibition of O=C(Nc1ccc(-c2cccc(-c3nc4ccccc4[nH]3)c2)cc1)Nc1ccsc1 [TCMDC-133220] . Value?
Reply: 7.696

Ask: May I ask what % Inhibition has been recorded for O=C(Nc1ccc(CC(=O)N2CCc3cc(Cl)c(N4CCN(C/C=C/c5ccccc5)CC4)cc32)cc1)Nc1cccc([N+](=O)[O-])c1 [TCMDC-139475] ?
Reply: 6.892

Ask: Which measured % Inhibition value corresponds to CC(Cc1ccc(COc2ccc(CC(CO)NCCc3cccc(Cl)c3)cc2)cc1)NCCc1cccc(Cl)c1 (stereo not shown) [TCMDC-139844] ?
Reply: 116.5

Ask: # lookup: % Inhibition of CC(C)=CCN1CCC(C(=O)Nc2ccc(-c3nc4ccccc4[nH]3)cc2)CC1 [TCMDC-124613]
Reply: -52.31

Ask: Please give the measured % Inhibition for this molecule: CC(Cc1ccc(OCc2ccccc2)cc1)NCC(O)c1cccc(Cl)c1 (stereo not shown) [TCMDC-131473]
Reply: 11.58

Ask: Give the measured % Inhibition of COc1cc2ccccc2c(CNCCCCCCNCc2c(OC)c(OC)cc3ccccc23)c1OC [TCMDC-137795] .
Reply: 103.3

Ask: Return reported % Inhibition; argument: Cc1cccc2[nH]c(-c3cccc(-c4ccc(NC(=O)c5cnc[nH]5)cc4)c3)nc12 [TCMDC-136937]
Reply: 92.2

Ask: What measured % Inhibition goes with Cc1cccc2[nH]c(-c3cccc(-c4ccc(NC(=O)c5ccncc5)cc4)c3)nc12 [TCMDC-136966] ?
Reply: 61.29

Ask: Given the entry Cc1cccc2[nH]c(-c3cccc(-c4cccc(NC(=O)c5ccncc5)c4)c3)nc12 [TCMDC-136965] , report its measured % Inhibition.
Reply: -36.15

Ask: Reported % Inhibition for CC(Cc1ccc(OCc2ccc(CCN(C)C)cc2)cc1)NCCc1cccc(Cl)c1 (stereo not shown) [TCMDC-139644] : what is it?
Reply: 101.3

Ask: // query % Inhibition value for entry COc1cc2ccccc2c(OC)c1CNCCCCCCNCc1c(OC)cc2ccccc2c1OC [TCMDC-137843]
Reply: 116.8

Ask: Which % Inhibition is listed for CC(Cc1ccc(OCC(=O)NCC2CCN(CCc3cccc(Cl)c3)CC2)cc1)NCCc1cccc(Cl)c1 (stereo not shown) [TCMDC-139834] ?
Reply: 46.25

Ask: So what's the measured % Inhibition for this one? Cc1cccc2[nH]c(-c3cccc(-c4cccc(NC(=O)c5cnc[nH]5)c4)c3)nc12 [TCMDC-136936]
Reply: -12.17

Ask: For CC(C)c1ccc(NC(=O)c2ccc(CN3CCCN(Cc4cccc(O)c4)CC3)cc2)cc1 [TCMDC-136419] , what is its reported % Inhibition?
Reply: -24.98
